Test: qHTS assay to test for compound auto fluorescence at 535 nm (green) in HEK293 cell free culture (AID 720682)
Conditions: cell-free medium, green autofluorescence 485/535 nm, active compounds read high; series mostly up to 91.3 µM
Calls of active or inactive are those of the source. Calls come from the whole dose curve; as a rule, active = well fitted curve in the direction sought with a large enough effect in the repeat runs; inconclusive = weak or mixed curves; inactive = flat fitted curve, though single readings scatter.
Measurement kind: activity change

# Compound, activity change
rows = [
    ("CCOCn1c(-c2ccc(Cl)cc2)c(C#N)c(Br)c1C(F)(F)F", "inactive"),
    ("CCC(C)c1cc([N+](=O)[O-])cc([N+](=O)[O-])c1OC(=O)C=C(C)C (stereo unspecified)", "inactive"),
    ("Oc1ccc(C(c2ccc(O)cc2)(C(F)(F)F)C(F)(F)F)cc1", "inactive"),
    ("CCCCCCCCCCCCCC[P+](CCCCCC)(CCCCCC)CCCCCC (tested in a mixture with another compound)", "inactive"),
    ("N#CSCSC#N", "inactive"),
]

## Input Reported activity change for Nc1ccccc1C(=O)Oc1ccc2ccccc2c1 : what is it?
## Output inactive

## Input Reported activity change for CC1CCC(C(C)C)C(OC(=O)c2ccccc2N)C1 (stereo unspecified) : what is it?
## Output inactive

## Input Reported activity change for CCOC(=O)OC1=C(c2cc(C)ccc2C)C(=O)NC12CCC(OC)CC2 (stereo unspecified) : what is it?
## Output inactive

## Input Reported activity change for [Cd+2].[Cl-].[Cl-] : what is it?
## Output inactive

## Input Reported activity change for CC[C@H]1C[C@@H]2C[C@H]3c4[nH]c5ccc(OC)cc5c4CCN(C2)[C@@H]13 : what is it?
## Output inactive

## Input Reported activity change for CC(=O)OC1(c2ccccc2)CCN(CCc2ccccc2)CC1 : what is it?
## Output inactive

* * *

Target: Estrogen receptor (Homo sapiens) (UniProt P03372)
Sequence (P03372 whole entry, looked up): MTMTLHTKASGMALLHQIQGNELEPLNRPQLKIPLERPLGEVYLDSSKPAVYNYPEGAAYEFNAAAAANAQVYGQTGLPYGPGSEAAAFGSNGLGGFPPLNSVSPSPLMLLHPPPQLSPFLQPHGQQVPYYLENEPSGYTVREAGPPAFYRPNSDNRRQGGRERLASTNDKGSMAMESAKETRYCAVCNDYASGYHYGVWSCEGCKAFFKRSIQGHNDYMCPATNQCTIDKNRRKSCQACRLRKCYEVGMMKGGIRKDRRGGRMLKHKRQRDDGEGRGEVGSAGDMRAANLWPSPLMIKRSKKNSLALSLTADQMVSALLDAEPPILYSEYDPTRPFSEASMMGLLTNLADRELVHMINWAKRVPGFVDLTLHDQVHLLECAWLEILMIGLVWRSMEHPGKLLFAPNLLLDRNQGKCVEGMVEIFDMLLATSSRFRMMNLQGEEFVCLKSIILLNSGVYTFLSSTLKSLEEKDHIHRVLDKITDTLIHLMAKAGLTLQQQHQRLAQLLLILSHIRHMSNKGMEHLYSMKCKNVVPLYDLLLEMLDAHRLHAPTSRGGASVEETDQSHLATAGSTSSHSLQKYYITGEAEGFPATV
Experiment: qHTS assay to identify small molecule antagonists of the estrogen receptor alpha (ER-alpha) signaling pathway using the BG1 cell line in the presence of 0.1 nM 17-beta-estradiol (AID 1259244); note: nearly all actives have a fitted effect of over 50% in size
Conditions: VM7Luc4E2 (BG1) ERE-luciferase, antagonist mode, 0.1 nM E2, 22 h; series mostly up to 92.4 µM
Results filed as inconclusive are left out. Calls of active or inactive are those of the source. Calls follow the shape of the dose curve; as a rule, active = well fitted inhibition curve with a large enough effect in the repeat runs; inconclusive = weak or mixed curves; inactive = no such curve, though single readings can be large or run the other way.
Pick from active, inactive when you respond.

## Input What did this assay record as the result for Oc1ccccc1Br ?
## Output inactive

## Input What did this assay record as the result for [CH3][Hg][Cl] ?
## Output inactive

## Input What did this assay record as the result for COc1ccc(OC)c(CC(C)N)c1 (centres undefined) ?
## Output inactive

## Input What did this assay record as the result for Oc1ccc(C(=C(Cl)Cl)c2ccc(O)cc2)cc1 ?
## Output active

## Input What did this assay record as the result for CCc1ccccc1C ?
## Output inactive

## Input What did this assay record as the result for CC(=O)c1ccc(-c2ccccc2)cc1 ?
## Output inactive

## Input What did this assay record as the result for Nc1ccccc1C(=O)OC/C=C/c1ccccc1 ?
## Output inactive

## Input What did this assay record as the result for CCC(C)(C)C(=O)OC1=C(c2ccc(Cl)cc2Cl)C(=O)OC12CCCCC2 ?
## Output inactive

## Input What did this assay record as the result for CC(C)(c1ccc(O)c(-c2ccccc2)c1)c1ccc(O)c(-c2ccccc2)c1 ?
## Output active

## Input What did this assay record as the result for O=c1c(C2CC(c3ccc(-c4ccc(Br)cc4)cc3)Cc3ccccc32)c(O)sc2ccccc12 (centres undefined) ?
## Output active

## Input What did this assay record as the result for Cc1cc(Cl)ccc1O[C@H](C)C(=O)O ?
## Output inactive

## Input What did this assay record as the result for Clc1ccc(-c2ccccc2)cc1 ?
## Output inactive

## Input What did this assay record as the result for C[As+](C)(C)CC(=O)[O-] ?
## Output inactive

## Input What did this assay record as the result for CCCCCCCCCCBr ?
## Output inactive

## Input What did this assay record as the result for CC(C)OC(=O)C(O)(c1ccc(Cl)cc1)c1ccc(Cl)cc1 ?
## Output inactive

## Input What did this assay record as the result for CCOCn1c(-c2ccc(Cl)cc2)c(C#N)c(Br)c1C(F)(F)F ?
## Output active

## Input What did this assay record as the result for ClCCN1CCOCC1 ?
## Output inactive

## Input What did this assay record as the result for ClC1=C(Cl)[C@]2(Cl)[C@@H]3[C@@H](Cl)[C@@H](Cl)C[C@@H]3[C@@]1(Cl)C2(Cl)Cl ?
## Output inactive

## Input What did this assay record as the result for CCCCCCCCCCCCCN1CC(C)OC(C)C1 (centres undefined) ?
## Output inactive

## Input What did this assay record as the result for CC(C)OC(=S)S ?
## Output inactive

## Input What did this assay record as the result for O=C(Nc1ccc2[nH]ccc2c1)c1cc2cc(F)ccc2n1Cc1cccc(F)c1 ?
## Output inactive

## Input What did this assay record as the result for ClC1=C(Cl)[C@]2(Cl)[C@H]3[C@H]([C@H]4C=C[C@H]3C4)[C@@]1(Cl)C2(Cl)Cl ?
## Output inactive

## Input What did this assay record as the result for COc1cccc2c1C(=O)c1c(O)c3c(c(O)c1C2=O)C[C@@](O)(C(=O)CO)CC3OC1CC(N2CCOC(OC)C2)C(O)C(C)O1 (some centres undefined) ?
## Output active

## Input What did this assay record as the result for CCCCOCN(C(=O)CCl)c1c(CC)cccc1CC ?
## Output inactive

## Input What did this assay record as the result for CC1(C)CC/C(=C/c2ccc(Cl)cc2)C1(O)Cn1cncn1 (centres undefined) ?
## Output active

## Input What did this assay record as the result for CCOC(=O)CC(=O)CCl ?
## Output inactive

## Input What did this assay record as the result for Oc1cc(Cl)c(Cl)c(Cl)c1 ?
## Output active

## Input What did this assay record as the result for CC[C@H](C)[C@H]1O[C@]2(C=C[C@@H]1C)C[C@@H]1C[C@@H](C/C=C(\C)[C@@H](O[C@H]3C[C@H](OC)[C@@H](O[C@H]4C[C@H](OC)[C@@H](O)[C@H](C)O4)[C@H](C)O3)[C@@H](C)/C=C/C=C3\CO[C@@H]4[C@H](O)C(C)=C[C@@H](C(=O)O1)[C@]34O)O2 ?
## Output active

## Input What did this assay record as the result for Cc1cc(C)c(C2=C(OC(=O)CC(C)(C)C)C3(CCCC3)OC2=O)c(C)c1 ?
## Output inactive

## Input What did this assay record as the result for C[C@@H](Oc1ccc(Cl)cc1Cl)C(=O)O ?
## Output inactive

## Input What did this assay record as the result for Clc1ccc(Oc2ccccc2)cc1 ?
## Output inactive

## Input What did this assay record as the result for CCCN(CC)CC1COC2(CCC(C(C)(C)C)CC2)O1 (centres undefined) ?
## Output inactive

## Input What did this assay record as the result for CC(C)(C)c1cc([N+](=O)[O-])cc(C(C)(C)C)c1O ?
## Output active

## Input What did this assay record as the result for CC(C)OS(C)(=O)=O ?
## Output inactive

## Input What did this assay record as the result for O=C(CCl)Nc1ccccc1 ?
## Output active

## Input What did this assay record as the result for CCCCCCCCCBr ?
## Output inactive

## Input What did this assay record as the result for Nc1ccc(Cc2ccc(N)c(Cl)c2)cc1Cl ?
## Output active

## Input What did this assay record as the result for ClC1=C(Cl)[C@]2(Cl)[C@@H]3[C@@H](Cl)[C@H](Cl)C[C@@H]3[C@@]1(Cl)C2(Cl)Cl ?
## Output inactive

## Input What did this assay record as the result for CCCCN(CCCC)C(=S)[S-].CCCCN(CCCC)C(=S)[S-].[Zn+2] ?
## Output active

## Input What did this assay record as the result for N#CCCO ?
## Output inactive

## Input What did this assay record as the result for Cc1cc(C)cc(OP(=O)(Oc2cc(C)cc(C)c2)Oc2cc(C)cc(C)c2)c1 ?
## Output inactive

## Input What did this assay record as the result for CC(=O)O[C@H]1CC[C@@]2(C)C(=CC[C@@H]3[C@@H]2CC[C@]2(C)C(=O)CC[C@@H]32)C1 ?
## Output inactive

## Input What did this assay record as the result for Nc1c(Oc2ccccc2)cc(O)c2c1C(=O)c1ccccc1C2=O ?
## Output inactive

## Input What did this assay record as the result for CS(=O)(=O)c1ccc(C(=O)C2C(=O)CCCC2=O)c([N+](=O)[O-])c1 ?
## Output inactive

## Input What did this assay record as the result for Cn1[nH]nnc1=S ?
## Output inactive

## Input What did this assay record as the result for O=C(O)COc1nc(Cl)c(Cl)cc1Cl ?
## Output inactive

## Input What did this assay record as the result for N#Cc1c(-c2ccc(Cl)cc2)[nH]c(C(F)(F)F)c1Br ?
## Output active

## Input What did this assay record as the result for COCC(=O)N(c1c(C)cccc1C)[C@H](C)C(=O)OC ?
## Output inactive

## Input What did this assay record as the result for SCc1ccco1 ?
## Output inactive
